Collected hCRHR1 Luciferase Reporter Assay IC50 values appear next to each entry.
- MEASURED TARGET: T1, corticotropin-releasing hormone (CRH) peptide (human and mouse (same sequence), not fully specified)
- T1 peptide: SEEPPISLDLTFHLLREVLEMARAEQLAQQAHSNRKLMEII
- TEST DESCRIPTION: cell-based or functional assay
Answer with a number only, understood to be in nM.

INSERT INTO results (binder, recorded_endpoint, reading) VALUES
  ('PR302309-16 (antibody, human IgG1, kappa, V domains shown) VH: QIQLVQSGAEVKKPGASVKVSCKASGYTFTNYGMNWVRQAPGQRLEWMGWINTYTGEPIYTDDFKGRVTITLDTSASTAYMELSSLRSEDTAVYYCSRSTMITTGGVFAYWGQGTLVTVSS VL: DVLMAQTPLSLPVSLGDQASISCRSSQTIVHSDGNTYLEWYLQKPGQSPKLLIYKVSNRFSGVPDRFSGSGSGTDFTLKISRVEAEDLGVYYCFQGSHVPWTFGGGTKLEIKR', 'hCRHR1 Luciferase Reporter Assay IC50', 5.47);

Please look at the following binder next.
Ask: What does the record list as hCRHR1 Luciferase Reporter Assay IC50 for PR302309-1 (antibody, human IgG1, kappa, V domains shown) VH: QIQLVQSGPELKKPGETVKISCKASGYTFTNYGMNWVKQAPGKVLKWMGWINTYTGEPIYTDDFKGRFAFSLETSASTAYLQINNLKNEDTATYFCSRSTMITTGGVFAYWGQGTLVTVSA VL: DVVMTQSPLSLPVTLGQPASISCRSSQTIVHSDGNTYLEWFQQRPGQSPRRLIYKVSNRFSGVPDRFSGSGSGTDFTLKISRVEAEDVGVYYCFQGSHVPWTFGGGTKVEIKR ?
Reply: 4.42

Each recorded value in this set is attributed to patent US20260042834A1.
